Compiled from multiple publications: IC50 readings for human LMPTP-A (Homo sapiens).

Q: Indicate the recorded IC50 value for this compound: CN1CCC(CNC(=O)COCc2ccc(-c3cc(NCCCN4CCCCC4)c4cnccc4n3)cc2)CC1
Ans: ≤ 1000 nM

Q: Indicate the recorded IC50 value for this compound: Nc1ncn(Cc2c(Cl)cccc2Cl)c2nc(Cl)nc1-2
Ans: ≥ 20000 nM

Q: Indicate the recorded IC50 value for this compound: Nc1ncn(Cc2c(Cl)cccc2Cl)c2nc(-c3ccc(F)c(F)c3F)nc1-2
Ans: ≤ 1000 nM

Q: Indicate the recorded IC50 value for this compound: CCN(CC)C(=O)c1ccc(-c2cc(NCCCN3CCCCC3)c3cnccc3n2)cc1
Ans: ≤ 1000 nM

Q: Indicate the recorded IC50 value for this compound: CN1CCC(Nc2cc(-c3ccc4c(c3)cc(C(=O)N3CCN(C)CC3)n4C)nc3ccncc23)CC1
Ans: ≤ 1000 nM

Q: Indicate the recorded IC50 value for this compound: CN1CCC(CCNC(=O)/C=C/c2ccc(-c3cc(NCCCN4CCCCC4)c4cnccc4n3)o2)CC1
Ans: 1000 to 20000 nM

Q: Indicate the recorded IC50 value for this compound: Nc1ncn(Cc2c(Cl)cccc2Cl)c2nc(-c3ccc[nH]3)nc1-2
Ans: ≤ 1000 nM

Q: Indicate the recorded IC50 value for this compound: Cc1cncc2c(NCCCN3CCCCC3)cc(-c3ccc(C(=O)NCCCN4CCCCC4)cc3)nc12
Ans: ≥ 20000 nM

Q: Indicate the recorded IC50 value for this compound: Nc1ncn(Cc2c(Cl)cncc2Cl)c2nc(-c3ccc4c(c3)OCO4)nc1-2
Ans: < 1000 nM

Q: Indicate the recorded IC50 value for this compound: Clc1cccc(Cn2cnc(NCc3ccco3)c3ncnc2-3)c1Cl
Ans: 1000 to 20000 nM

Q: Indicate the recorded IC50 value for this compound: CN(C)C(=O)c1ccc(Nc2ncn(Cc3c(Cl)cccc3Cl)c3ncnc2-3)cc1
Ans: 1000 to 20000 nM

Q: Indicate the recorded IC50 value for this compound: Nc1ncn(Cc2c(Cl)cncc2Cl)c2nc(-c3ccccc3)nc1-2
Ans: ≤ 1000 nM

Q: Indicate the recorded IC50 value for this compound: Nc1ncn(Cc2cccnc2)c2ncnc1-2
Ans: 1000 to 20000 nM
